assay: Cytotoxicity against human HT1080 cells assessed as growth inhibition after 48 hrs by MTT assay; assay type: functional, cell-based; conditions: HT-1080, 48 h
Listed compounds paired with reported IC50
Numbers only here, please. The scale is µM.

CC[C@H]1OC(=O)[C@H](C)[C@@H](O[C@H]2C[C@@](C)(OC)[C@@H](O)[C@H](C)O2)[C@H](C)[C@@H](O[C@@H]2O[C@H](C)C[C@H](N(C)CCN(C)[C@H]3C[C@@H](C)O[C@@H](O[C@@H]4[C@@H](C)[C@H](O[C@H]5C[C@@](C)(OC)[C@@H](O)[C@H](C)O5)[C@@H](C)C(=O)O[C@H](CC)[C@@](C)(O)[C@H](O)[C@@H](C)/C(=N\OCOCCOC)[C@H](C)C[C@@]4(C)O)[C@@H]3O)[C@H]2O)[C@](C)(O)C[C@@H](C)/C(=N/OCOCCOC)[C@H](C)[C@@H](O)[C@]1(C)O 3.5

# context switch: different compound, same IC50
Per the records, this compound ( CC[C@H]1OC(=O)[C@H](C)[C@@H](O[C@H]2C[C@@](C)(OC)[C@@H](O)[C@H](C)O2)[C@H](C)[C@@H](O[C@@H]2O[C@H](C)C[C@H](N(C)CC(=O)N(C)[C@H]3C[C@@H](C)O[C@@H](O[C@@H]4[C@@H](C)[C@H](O[C@H]5C[C@@](C)(OC)[C@@H](O)[C@H](C)O5)[C@@H](C)C(=O)O[C@H](CC)[C@@](C)(O)[C@H](O)[C@@H](C)C(=O)[C@H](C)C[C@@]4(C)OC)[C@@H]3O)[C@H]2O)[C@](C)(OC)C[C@@H](C)C(=O)[C@H](C)[C@@H](O)[C@]1(C)O ) has IC50 equal to 30.9

---

assay: Cytotoxicity against human HT1080 cells assessed as growth inhibition after 48 hrs by MTT assay; type: functional, cell-based; conditions: HT-1080, 48 h
readoutName: pIC50
As a rule, pIC50 stands for the negative log10 of the concentration, concentration in M.

Per the records, this molecule ( C=CCO/N=C1/[C@H](C)C[C@@](C)(O)[C@H](O[C@@H]2O[C@H](C)C[C@H](N(C)CCN(C)[C@H]3C[C@@H](C)O[C@@H](O[C@@H]4[C@@H](C)[C@H](O[C@H]5C[C@@](C)(OC)[C@@H](O)[C@H](C)O5)[C@@H](C)C(=O)O[C@H](CC)[C@@](C)(O)[C@H](O)[C@@H](C)/C(=N\OCC=C)[C@H](C)C[C@@]4(C)O)[C@@H]3O)[C@H]2O)[C@@H](C)[C@H](O[C@H]2C[C@@](C)(OC)[C@@H](O)[C@H](C)O2)[C@@H](C)C(=O)O[C@H](CC)[C@@](C)(O)[C@H](O)[C@H]1C ) has pIC50 equal to 4.56

---

experiment: Cytotoxicity against human HT1080 cells assessed as growth inhibition after 48 hrs by MTT assay; assay type: functional, cell-based; conditions: HT-1080, 48 h
readoutName: IC50

CCCCCCCCO/N=C1/[C@H](C)C[C@@](C)(O)[C@H](O[C@@H]2O[C@H](C)C[C@H](N(C)CCN(C)[C@H]3C[C@@H](C)O[C@@H](O[C@@H]4[C@@H](C)[C@H](O[C@H]5C[C@@](C)(OC)[C@@H](O)[C@H](C)O5)[C@@H](C)C(=O)O[C@H](CC)[C@@](C)(O)[C@H](O)[C@@H](C)/C(=N\OCCCCCCCC)[C@H](C)C[C@@]4(C)O)[C@@H]3O)[C@H]2O)[C@@H](C)[C@H](O[C@H]2C[C@@](C)(OC)[C@@H](O)[C@H](C)O2)[C@@H](C)C(=O)O[C@H](CC)[C@@](C)(O)[C@H](O)[C@H]1C > 100 µM
CC[C@H]1OC(=O)[C@H](C)[C@@H](O[C@H]2C[C@@](C)(OC)[C@@H](O)[C@H](C)O2)[C@H](C)[C@@H](O[C@@H]2O[C@H](C)C[C@H](N(C)CC(=O)N(C)[C@H]3C[C@@H](C)O[C@@H](O[C@@H]4[C@@H](C)[C@H](O[C@H]5C[C@@](C)(OC)[C@@H](O)[C@H](C)O5)[C@@H](C)C(=O)O[C@H](CC)[C@@](C)(O)[C@H](O)[C@@H](C)C(=O)[C@H](C)C[C@@]4(C)O)[C@@H]3O)[C@H]2O)[C@](C)(OC)C[C@@H](C)C(=O)[C@H](C)[C@@H](O)[C@]1(C)O > 100 µM
CC[C@H]1OC(=O)[C@H](C)[C@@H](O[C@H]2C[C@@](C)(OC)[C@@H](O)[C@H](C)O2)[C@H](C)[C@@H](O[C@@H]2O[C@H](C)C[C@H](N(C)CCN(C)[C@H]3C[C@@H](C)O[C@@H](O[C@@H]4[C@@H](C)[C@H](O[C@H]5C[C@@](C)(OC)[C@@H](O)[C@H](C)O5)[C@@H](C)C(=O)O[C@H](CC)[C@@](C)(O)[C@H](O)[C@@H](C)/C(=N\OCc5ccccc5)[C@H](C)C[C@@]4(C)OC)[C@@H]3O)[C@H]2O)[C@](C)(OC)C[C@@H](C)/C(=N/OCc2ccccc2)[C@H](C)[C@@H](O)[C@]1(C)O 9.5 µM
CC[C@H]1OC(=O)[C@H](C)[C@@H](O[C@H]2C[C@@](C)(OC)[C@@H](O)[C@H](C)O2)[C@H](C)[C@@H](O[C@@H]2O[C@H](C)C[C@H](N(C)CCN(C)[C@H]3C[C@@H](C)O[C@@H](O[C@@H]4[C@@H](C)[C@H](O[C@H]5C[C@@](C)(OC)[C@@H](O)[C@H](C)O5)[C@@H](C)C(=O)O[C@H](CC)[C@@](C)(O)[C@H](O)[C@@H](C)/C(=N\OCOCCOC)[C@H](C)C[C@@]4(C)O)[C@@H]3O)[C@H]2O)[C@](C)(OC)C[C@@H](C)/C(=N/O)[C@H](C)[C@@H](O)[C@]1(C)O 6.3 µM
CC[C@H]1OC(=O)[C@H](C)[C@@H](O)[C@H](C)[C@@H](O[C@@H]2O[C@H](C)C[C@H](N(C)CCN(C)[C@H]3C[C@@H](C)O[C@@H](O[C@@H]4[C@@H](C)[C@H](O)[C@@H](C)C(=O)O[C@H](CC)[C@@](C)(O)[C@H](O)[C@@H](C)C(=O)[C@H](C)C[C@@]4(C)OC)[C@@H]3O)[C@H]2O)[C@](C)(OC)C[C@@H](C)C(=O)[C@H](C)[C@@H](O)[C@]1(C)O > 100 µM

Per the records, this compound ( CC[C@H]1OC(=O)[C@H](C)[C@@H](O[C@H]2C[C@@](C)(OC)[C@@H](O)[C@H](C)O2)[C@H](C)[C@@H](O[C@@H]2O[C@H](C)C[C@H](N(C)CC(=O)N(C)[C@H]3C[C@@H](C)O[C@@H](O[C@@H]4[C@@H](C)[C@H](O[C@H]5C[C@@](C)(OC)[C@@H](O)[C@H](C)O5)[C@@H](C)C(=O)O[C@H](CC)[C@@](C)(O)[C@H](O)[C@@H](C)/C(=N/OCOCCOC)[C@H](C)C[C@@]4(C)O)[C@@H]3O)[C@H]2O)[C@](C)(O)C[C@@H](C)/C(=N/OCOCCOC)[C@H](C)[C@@H](O)[C@]1(C)O ) has IC50 equal to 33.4 µM

Per the records, this compound ( CC[C@H]1OC(=O)[C@H](C)[C@@H](O[C@H]2C[C@@](C)(OC)[C@@H](O)[C@H](C)O2)[C@H](C)[C@@H](O[C@@H]2O[C@H](C)C[C@H](N(C)CC(=O)N(C)[C@H]3C[C@@H](C)O[C@@H](O[C@@H]4[C@@H](C)[C@H](O[C@H]5C[C@@](C)(OC)[C@@H](O)[C@H](C)O5)[C@@H](C)C(=O)O[C@H](CC)[C@@](C)(O)[C@H](O)[C@@H](C)C(=O)[C@H](C)C[C@@]4(C)O)[C@@H]3O)[C@H]2O)[C@](C)(O)C[C@@H](C)C(=O)[C@H](C)[C@@H](O)[C@]1(C)O ) has IC50 equal to > 100 µM

Per the records, this compound ( CC[C@H]1OC(=O)[C@H](C)[C@@H](O[C@H]2C[C@@](C)(OC)[C@@H](O)[C@H](C)O2)[C@H](C)[C@@H](O[C@@H]2O[C@H](C)C[C@H](N(C)CC(=O)N(C)[C@H]3C[C@@H](C)O[C@@H](O[C@@H]4[C@@H](C)[C@H](O)[C@@H](C)C(=O)O[C@H](CC)[C@@](C)(O)[C@H](O)[C@@H](C)/C(=N\OCOCCOC)[C@H](C)C[C@@]4(C)O)[C@@H]3O)[C@H]2O)[C@](C)(OC)C[C@@H](C)C(=O)[C@H](C)[C@@H](O)[C@]1(C)O ) has IC50 equal to > 100 µM
